- tested.system: β-catenin (Homo sapiens, UniProt P35222)
- Sequence (P35222 whole entry): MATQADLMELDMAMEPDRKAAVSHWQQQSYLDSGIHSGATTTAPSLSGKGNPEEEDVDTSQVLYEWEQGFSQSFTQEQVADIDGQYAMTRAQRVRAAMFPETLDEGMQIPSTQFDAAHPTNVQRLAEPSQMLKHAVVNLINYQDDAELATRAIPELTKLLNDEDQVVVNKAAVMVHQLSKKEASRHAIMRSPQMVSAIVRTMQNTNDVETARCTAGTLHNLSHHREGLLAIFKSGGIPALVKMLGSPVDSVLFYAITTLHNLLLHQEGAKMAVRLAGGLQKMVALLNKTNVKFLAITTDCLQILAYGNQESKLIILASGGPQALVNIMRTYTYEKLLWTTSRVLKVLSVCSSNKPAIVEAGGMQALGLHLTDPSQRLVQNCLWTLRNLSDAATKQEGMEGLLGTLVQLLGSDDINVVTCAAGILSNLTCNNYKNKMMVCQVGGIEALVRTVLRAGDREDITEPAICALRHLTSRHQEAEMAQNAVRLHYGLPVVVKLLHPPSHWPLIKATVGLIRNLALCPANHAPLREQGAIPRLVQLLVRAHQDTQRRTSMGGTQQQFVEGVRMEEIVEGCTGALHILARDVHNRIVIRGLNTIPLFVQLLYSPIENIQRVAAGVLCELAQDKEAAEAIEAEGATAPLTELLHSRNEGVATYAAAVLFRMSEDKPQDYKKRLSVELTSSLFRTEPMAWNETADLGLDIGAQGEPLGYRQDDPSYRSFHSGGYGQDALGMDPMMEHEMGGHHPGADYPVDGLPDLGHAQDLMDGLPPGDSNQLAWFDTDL
- assay.method.text: KD50 measurement using competitive fluorescence polarization (FP) with labelled TCF4
- Type: binding
- protocol.conditions: fluorescence polarization, β-catenin
Where a SMILES comes first, the peptide text is derived from it.
quantity: β-Cat FP Hill slope

INSERT INTO assay_data (molecule, numeric_result) VALUES
  ('CC[C@H](C)[C@@H]1NC(=O)[C@H](CC(C)C)NC(=O)[C@H](Cc2ccccc2)NC(=O)[C@H](Cc2c[nH]c3ccccc23)NC(=O)[C@@H](N)CCCCNC(=O)CC[C@@H](C(=O)N[C@@H](Cc2ccccc2)C(=O)N[C@@H](Cc2c[nH]c3ccccc23)C(=O)NCC(=O)O)NC1=O [compound 229] (HELM PEPTIDE1{K.W.F.L.I.E.F.W.G}$PEPTIDE1,PEPTIDE1,1:R3-6:R3$$$V2.0)', 0.43),
  ('CC[C@H](C)[C@H](NC(=O)[C@H](CC(C)C)NC(=O)[C@@H](NC(=O)[C@H](Cc1c[nH]c2ccccc12)NC(=O)[C@@H](N)CCCNC(=N)N)[C@@H](C)CC)C(=O)N[C@@H](CS)C(=O)N[C@@H](Cc1ccccc1)C(=O)N[C@@H](Cc1c[nH]c2ccccc12)C(=O)NCC(=O)O [compound 119] (H-RWILICFWG-OH)', 0.7),
  ('CC[C@H](C)[C@H](NC(=O)[C@H](CC(C)C)NC(=O)[C@H](Cc1ccccc1)NC(=O)[C@H](Cc1c[nH]c2ccccc12)NC(=O)[C@@H](N)CCSC)C(=O)N[C@@H](CO)C(=O)N[C@@H](CO)C(=O)N[C@@H](Cc1c[nH]c2ccccc12)C(=O)O [compound 96] (H-MWFLISSW-OH)', 0.7);
